Protocol notes: Cytotoxicity against human HepG2A16 cells
Format: cell-based
pIC50: −log10 of the molar value.
Quick rule: pIC50 of at least 5 means rule met, below that means rule not met.

Reference set, count: 4
• CCN(CC)CCn1c2ccccc2c2c1c(=O)c1ccccc1n2CCN(CC)CC = rule met
• CCN(CC)CCOc1c2ccc(Cl)cc2nc2c3cc(Cl)ccc3n(CCN(CC)CC)c12 = rule met
• O=c1c2ccccc2[nH]c2c1[nH]c1ccccc12 = rule not met
• CCN(CC)CCn1c2ccccc2c2c1c(=O)c1ccc(Cl)cc1n2CCN(CC)CC = rule met

Now turn to the next molecule.
Hi, just wondering whether CCN(CC)CCOc1c2ccccc2nc2c3ccccc3n(CCN(CC)CC)c12 shows pIC50 of 5 or higher.
rule met

src = ChEMBL document CHEMBL1255558
